Can you tell me response for the items I'm about to list?
- Target: tubulin covalently linked to a biotinylated stathmin-like peptide
- Run description: ELISA
- Applied conditions: chain shown with the change; buffer incubation after binding; 10 nM biotinylated peptide-coupled tubulin for coating; parent: est. 0.32; read off a plot
Numbers only, in AU.

Examples with their reported response follow.
Binder	response (AU)
DARPin D1 N74S; I76S; I78L (protein) MRGSHHHHHHGSDLGKKLLEAARAGQDDEVRILMANGADVNATDASGLTPLHLAATYGHLEIVEVLLKHGADVSASDLMGSTPLHLAALIGHLEIVEVLLKHGADVNAVDTWGDTPLHLAAIMGHLEIVEVLLKHGADVNAQDKFGKTAFDISIDNGNEDLAEILQKLN	0.34
DARPin D1 I152T (protein) MRGSHHHHHHGSDLGKKLLEAARAGQDDEVRILMANGADVNATDASGLTPLHLAATYGHLEIVEVLLKHGADVNAIDIMGSTPLHLAALIGHLEIVEVLLKHGADVNAVDTWGDTPLHLAAIMGHLEIVEVLLKHGADVNAQDKFGKTAFDTSIDNGNEDLAEILQKLN	0.79

Now let's try a different one.
Task: Which measured response value corresponds to DARPin D1 N158S (protein) MRGSHHHHHHGSDLGKKLLEAARAGQDDEVRILMANGADVNATDASGLTPLHLAATYGHLEIVEVLLKHGADVNAIDIMGSTPLHLAALIGHLEIVEVLLKHGADVNAVDTWGDTPLHLAAIMGHLEIVEVLLKHGADVNAQDKFGKTAFDISIDNGSEDLAEILQKLN ?
Result: 0.59
